# System: human iPS cells
# method.notes: Cell Adhesiveness Evaluation 2 (synthetic peptide inhibition of cell adhesion to natural vitronectin)
# Format: cell-based
# experimental.conditions: 100 μM synthetic peptide
# Procedure: Polypeptides listed in Table 7 were synthesized by Emoc solid phase synthesis. A surface to which natural vitronectin was adsorbed at a concentration of 130 pmol/m^2, and thereafter, a cell suspension to which 100 μM of the above-described synthetic peptide was added was seeded at a rate of 30,000 cells/well. The number of adherent cells after 24 h post seeding was calculated by the same technique as in <Cell Adhesiveness Evaluation 1>.
measured.property: inhibition of cell adhesion to natural vitronectin (in words)

record_sequence="CCTDYTAECKPQVTRGDVFT [Peptide-5]" target_of_assay="human iPS cells" measurement="significantly inhibited"
record_sequence="TAECKPQVTRGDVFTMPEDE [Peptide-6]" target_of_assay="human iPS cells" measurement="significantly inhibited"
record_sequence="DKKCQCDELCSYYQSCCTDY [Peptide-4]" target_of_assay="human iPS cells" measurement="significantly inhibited"
